Consider the following molecules; for each one, report its cell viability.
Tested on: P12-Ichikawa
Assay: cell viability relative to DMSO control; higher = less cytotoxic
Settings: RPMI 5 mM glucose + 10% dialyzed FBS; 48 h; 15.4 µM
Give bare numbers, in %.

Worked cases, cell viability given:
>>> df
                                   molecule  assayed_system  observed_property  readout_value
0       CCN(C)C(=O)Oc1cccc([C@H](C)N(C)C)c1    P12-Ichikawa     cell viability           94.7
1  Cc1ccc(-c2ncn(-c3ccc(Nc4nccc(-c5cccc(N6CCOCC6)c5)n4)cc3)n2)cn1    P12-Ichikawa     cell viability           2.93
2  CC(=O)[C@H]1CC[C@H]2[C@@H]3CCC4=CC(=O)CC[C@]4(C)[C@H]3CC[C@]12C    P12-Ichikawa     cell viability           91.9
3  COc1cc(-c2nn(C3CCC(N4CCN(C(C)=O)CC4)CC3)c3ncnc(N)c23)ccc1NC(=O)c1cc2ccccc2n1C (stereo not given)    P12-Ichikawa     cell viability            103
4  CC(C)(C)NC(=O)[C@@H]1CN(Cc2cccnc2)CCN1C[C@@H](O)C[C@@H](Cc1ccccc1)C(=O)N[C@H]1c2ccccc2C[C@H]1O.O=S(=O)(O)O    P12-Ichikawa     cell viability           99.4
5  C[C@@H]1CC[C@@]2(OC1)OC1CC3C4CC=C5CC(O)CCC5(C)C4CCC3(C)C1[C@@H]2C (stereo not given in full)    P12-Ichikawa     cell viability           73.8

Okay, here is my list. What is cell viability for each of these?
1. COC1=CC2=C(C=C1OC)[C@H]3[C@@H](CO2)OC4=C(C=CC5=C4\C=C/C(C)(C)O5)C3=O
2. CC(C)c1ccccc1Cc1cc(C(=O)Nc2ccc([S+](=O)([O-])c3ccccc3C(C)(C)C)cc2)c(O)c(O)c1O
3. CCNC(=O)[C@H]1O[C@@H](n2cnc3c(N)nc(NCCc4ccc(CCC(=O)O)cc4)nc32)[C@H](O)[C@@H]1O
4. O=C(NNC(=O)c1ccc(CN[S+](=O)([O-])c2ccc(F)c(Cl)c2)cc1)c1ccccc1
5. NC\1=N\C(=O)N(\C=C1)[C@H]\2[C@H](O)[C@H](O)C(=C2F)\CO

Response:
1. 60.9
2. 93.3
3. 95.9
4. 107
5. 23.4

State recorded cell viability for all listed molecules.
1. CC(C)[C@H](CO)Nc1nc(Nc2cccc(Cl)c2)c2ncn(C(C)C)c2n1
2. OC1=CC=C(C=C1)\C2=C\C(=O)C3=C(O2)C=C(O)C=C3O

Response:
[18.2, 103]

Hey, can you go through the list below and give me cell viability for every item?
1. CCCCCCCCCCCCCCCCCCOP(=O)([O-])OC1CC[N+](C)(C)CC1
2. CO[C@@H]1C(N(C)C(=O)c2ccccc2)C[C@H]2O[C@]1(C)n1c3ccccc3c3c4c(c5c6ccccc6n2c5c31)C(=O)NC4=O (stereo not given in full)

Response:
1: 105; 2: 23.2
